# Target Desc: cruzain (Trypanosoma cruzi, UniProt P25779);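 further: at 5 µM compound concentration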
# Sequence (P25779 123-337 limits assumed): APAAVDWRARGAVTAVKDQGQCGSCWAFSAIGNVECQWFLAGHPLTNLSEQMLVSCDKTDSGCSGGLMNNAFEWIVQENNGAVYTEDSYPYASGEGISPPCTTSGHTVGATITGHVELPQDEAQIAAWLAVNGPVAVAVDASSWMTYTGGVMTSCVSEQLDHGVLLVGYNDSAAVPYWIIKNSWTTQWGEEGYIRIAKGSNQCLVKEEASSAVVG
# Measurement Protocol: biochemical
# Condition Parameters: 0’ (no pre-incubation); sheet Screening results
Value Kind: Cruzain Inhibition 0’ (%)
One number for each entry, in %.

Past entries and their recorded results:
Compound	Measured Result
CCc1c(C)nc(-n2nc(C)cc2NC(=O)c2ccccc2SC)[nH]c1=O	-0.2
Cc1ccc(S(=O)(=O)Nc2ccc(CN3CCN(C(=O)c4cccc(C#N)c4)CC3)cc2)cc1	-0.6
CNC(=O)c1nn(C)c2c1C(C)(C)Cc1cnc(Nc3ccc(N4CCN(C)CC4)cc3)nc1-2	0.9
COc1cccc(-n2nnnc2S(=O)(=O)Cc2ccccc2)c1	15

Could I get Cruzain Inhibition 0’ for every one of these entries?
1. c1ccc(-c2[nH]c3ccccc3c2C(c2ccccn2)N2CCCC2)cc1 (stereo not drawn)
2. O=C(NC1=NCCS1)c1sc2cc(F)ccc2c1Cl
3. O=C(c1cc2ccccc2o1)N1CCN(Cc2ccc3c(c2)OCO3)CC1
4. O=C(Nc1cccnc1)c1c(O)c2cccc3c2n(c1=O)CC3

1. 3.2
2. -2.7
3. -1.2
4. 10

Reported Cruzain Inhibition 0’ (cruzain (Trypanosoma cruzi, UniProt P25779)) for entry N#Cc1nc(-c2ccccc2)oc1S(=O)(=O)c1ccc(Cl)cc1 is 6
